Sourced from patent US20260159497A1

# assayName: Pharmacokinetic study after oral dosing, dog
# testSettings: in vivo, solution in 20% kleptose in water, Dog beagle male, 2 mg/kg, Fasted, 5 mL/kg, read-out: C24 h
testReadout: concentration at 24 h (nM)
Reply with just the number (in nM).

What does the record list as concentration at 24 h for "COc1cc(C)c2[nH]ccc2c1CN1CCC2(C[C@H]1c1ccc(C(=O)O)cc1)CC(F)(F)C2" ? 1730

====

# assayName: Pharmacokinetic study after oral dosing, rat
# Assay type: in vivo, SD Rat
# testSettings: male, SD (Sprague-Dawley), rat, in vivo, po, 300 mg/kg, oral; suspension in 0.5% methocel + 0.1% tween 80 in water; SD Rat male; 300 mg/kg; particle size D50 = 5.1 μm; Fed; 5 mL/kg; read-out: AUC0-24 h
testReadout: AUC(0-t)

Quick one: AUC(0-t) of COc1cc(C)c2[nH]ccc2c1CN1CCC2(C[C@H]1c1ccc(C(=O)O)cc1)CC(F)(F)C2 [Form A] ? 958 µM·h
